Origin of the recorded values: patent US20240360228A1

molecular target: T1, human CCR8 (human, UniProt P51685 1-355); assay: flow blocking, PBMC CCR8+CD3+; competitor PE-L263G8
T1 construct: Native CCR8 on human PBMC (CCR8+ CD3+ or CCR8+ CD4+ lymphocytes); also called chemokine (C-C motif) receptor 8
T1 sequence (P51685 whole entry): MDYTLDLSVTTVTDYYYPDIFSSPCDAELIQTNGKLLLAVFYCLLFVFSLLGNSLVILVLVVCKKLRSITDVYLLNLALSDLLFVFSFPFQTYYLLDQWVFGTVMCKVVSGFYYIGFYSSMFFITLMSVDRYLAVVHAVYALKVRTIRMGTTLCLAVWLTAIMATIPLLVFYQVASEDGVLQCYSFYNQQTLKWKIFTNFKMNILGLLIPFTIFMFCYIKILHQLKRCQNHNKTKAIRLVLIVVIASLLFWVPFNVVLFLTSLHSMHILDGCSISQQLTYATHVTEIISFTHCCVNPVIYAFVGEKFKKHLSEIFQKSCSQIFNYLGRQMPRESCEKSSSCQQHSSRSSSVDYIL
Listing of entries alongside the reported MFI.
Would you mind answering with just the numeric figure?

Worked cases, answers included:
AB7 (antibody, V domains shown, Hybridoma monoclonal; also called antibody 7; clone 7) VH: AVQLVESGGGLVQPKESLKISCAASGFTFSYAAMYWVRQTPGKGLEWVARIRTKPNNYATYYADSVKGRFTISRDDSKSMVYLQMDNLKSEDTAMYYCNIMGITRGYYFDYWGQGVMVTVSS VL: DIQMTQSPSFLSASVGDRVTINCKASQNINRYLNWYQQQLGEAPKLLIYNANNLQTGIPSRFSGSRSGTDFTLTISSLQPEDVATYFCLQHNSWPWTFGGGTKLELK :: 668
AB13 (antibody, V domains shown, Hybridoma monoclonal; also called antibody 13; clone 13) VH: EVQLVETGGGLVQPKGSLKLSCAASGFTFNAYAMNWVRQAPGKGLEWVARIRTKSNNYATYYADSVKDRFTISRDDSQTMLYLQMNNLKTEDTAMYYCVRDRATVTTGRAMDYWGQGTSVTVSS VL: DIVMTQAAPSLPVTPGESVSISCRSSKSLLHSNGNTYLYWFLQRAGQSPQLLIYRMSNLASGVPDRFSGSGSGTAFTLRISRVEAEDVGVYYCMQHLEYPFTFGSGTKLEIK :: 594
AB8 (antibody, V domains shown, Hybridoma monoclonal; also called antibody 8; clone 8) VH: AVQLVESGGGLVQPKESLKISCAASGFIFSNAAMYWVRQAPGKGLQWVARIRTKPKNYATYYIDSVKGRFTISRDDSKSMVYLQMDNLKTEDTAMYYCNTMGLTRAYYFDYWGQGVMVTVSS VL: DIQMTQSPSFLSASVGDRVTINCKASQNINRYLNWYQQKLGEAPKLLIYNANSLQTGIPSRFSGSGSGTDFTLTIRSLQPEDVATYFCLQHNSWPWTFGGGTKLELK :: 585
AB10 (antibody, V domains shown, Hybridoma monoclonal; also called antibody 10; clone 10) VH: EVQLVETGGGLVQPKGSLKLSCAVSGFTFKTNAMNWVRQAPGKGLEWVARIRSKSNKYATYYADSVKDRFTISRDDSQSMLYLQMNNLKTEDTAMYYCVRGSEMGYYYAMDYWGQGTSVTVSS VL: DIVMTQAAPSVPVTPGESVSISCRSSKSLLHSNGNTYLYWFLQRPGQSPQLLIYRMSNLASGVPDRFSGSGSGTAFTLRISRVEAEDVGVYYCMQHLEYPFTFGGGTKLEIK :: 605

Q: So what's the measured MFI for this one? AB5 (antibody, V domains shown, Hybridoma monoclonal; Same VH/VL entries as AB6; also called antibody 5; clone 5) VH: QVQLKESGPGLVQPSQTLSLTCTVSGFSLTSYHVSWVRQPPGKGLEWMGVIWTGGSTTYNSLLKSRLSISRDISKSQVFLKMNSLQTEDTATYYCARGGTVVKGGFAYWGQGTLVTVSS VL: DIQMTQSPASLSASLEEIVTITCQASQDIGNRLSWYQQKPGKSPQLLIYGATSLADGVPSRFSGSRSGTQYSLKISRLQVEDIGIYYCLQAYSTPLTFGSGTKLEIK
Ans: 769

Q: So what's the measured MFI for this one? AB11 (antibody, V domains shown, Hybridoma monoclonal; also called antibody 11; clone 11) VH: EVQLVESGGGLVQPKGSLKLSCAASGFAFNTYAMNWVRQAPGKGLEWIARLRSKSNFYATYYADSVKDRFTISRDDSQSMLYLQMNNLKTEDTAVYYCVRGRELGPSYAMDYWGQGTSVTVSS VL: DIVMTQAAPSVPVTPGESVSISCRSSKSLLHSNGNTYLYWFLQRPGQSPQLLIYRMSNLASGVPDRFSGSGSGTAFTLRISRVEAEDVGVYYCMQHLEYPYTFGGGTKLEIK
Ans: 427

Q: So what's the measured MFI for this one? AB6 (antibody, V domains shown, Hybridoma monoclonal; Same VH/VL entries as AB5; also called antibody 6; clone 6) VH: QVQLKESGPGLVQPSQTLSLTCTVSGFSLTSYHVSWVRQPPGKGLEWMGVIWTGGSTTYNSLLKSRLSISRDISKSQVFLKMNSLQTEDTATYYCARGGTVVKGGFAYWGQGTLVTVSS VL: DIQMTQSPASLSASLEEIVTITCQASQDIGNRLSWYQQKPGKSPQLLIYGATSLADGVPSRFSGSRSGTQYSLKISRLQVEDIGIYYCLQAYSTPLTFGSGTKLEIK
Ans: 783
